target: CCKA (Cavia porcellus, UniProt Q63931); construct: The pancreatata were removed from male guinea-pigs (200-300g; Dunkin Hartley); from tissue; host or cells: pancreas membranes of male Dunkin Hartley guinea-pigs; experiment: CCKA binding assay in guinea-pig pancreas membranes; details: [125I]-CCK8(S) 200pM, containing 0.375 µM PD134,308
Sequence (Q63931 whole entry): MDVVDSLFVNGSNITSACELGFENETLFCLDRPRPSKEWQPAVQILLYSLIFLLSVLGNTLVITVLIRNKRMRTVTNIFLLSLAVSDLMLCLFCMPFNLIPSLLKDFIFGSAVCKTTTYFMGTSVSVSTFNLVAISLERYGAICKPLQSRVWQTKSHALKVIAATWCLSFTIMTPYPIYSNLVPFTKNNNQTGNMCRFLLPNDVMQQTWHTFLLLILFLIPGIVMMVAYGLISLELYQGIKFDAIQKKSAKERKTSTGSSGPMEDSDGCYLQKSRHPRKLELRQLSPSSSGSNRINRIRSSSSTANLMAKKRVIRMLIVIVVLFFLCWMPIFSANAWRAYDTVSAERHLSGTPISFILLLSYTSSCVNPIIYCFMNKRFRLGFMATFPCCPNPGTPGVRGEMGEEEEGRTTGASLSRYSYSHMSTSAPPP
CCKA pKi strictly under 6 means TRUE; at 6 or over means FALSE.

molecule="O=C(O)c1cc(NC(=O)[C@H](Cc2ccccc2)NC(=O)C2C3c4ccccc4C(c4ccccc43)C2C(=O)NCc2ccc3ccccc3c2)cc(C(=O)O)c1 (single isomer, unassigned)" measuredon="CCKA (Cavia porcellus, UniProt Q63931)" classification=TRUE
molecule="O=C(O)c1cc(NC(=O)[C@H](Cc2ccc3ccccc3c2)NC(=O)C2C3c4ccccc4C(c4ccccc43)C2C(=O)NCC23CC4CC(CC(C4)C2)C3)cc(C(=O)O)c1 (single isomer, unassigned) [Example 15]" measuredon="CCKA (Cavia porcellus, UniProt Q63931)" classification=FALSE

Let us examine a further case.
Lookup: # TODO verify CCKA pKi < 6 strictly for this molecule: O=C(O)c1cc(CNC(=O)[C@H](Cc2ccccc2)NC(=O)C2C3c4ccccc4C(c4ccccc43)C2C(=O)NCC23CC4CC(CC(C4)C2)C3)cc(C(=O)O)c1 (single isomer, unassigned)
Found: TRUE

----------
Biological target: CCKB receptor (Mus musculus)
Construct: The whole brains from male mice (CD1 22-25g; Charles River) were removed; from tissue; host or cells: cerebral cortex membranes of male CD1 mice
Sequence (P56481 1-453): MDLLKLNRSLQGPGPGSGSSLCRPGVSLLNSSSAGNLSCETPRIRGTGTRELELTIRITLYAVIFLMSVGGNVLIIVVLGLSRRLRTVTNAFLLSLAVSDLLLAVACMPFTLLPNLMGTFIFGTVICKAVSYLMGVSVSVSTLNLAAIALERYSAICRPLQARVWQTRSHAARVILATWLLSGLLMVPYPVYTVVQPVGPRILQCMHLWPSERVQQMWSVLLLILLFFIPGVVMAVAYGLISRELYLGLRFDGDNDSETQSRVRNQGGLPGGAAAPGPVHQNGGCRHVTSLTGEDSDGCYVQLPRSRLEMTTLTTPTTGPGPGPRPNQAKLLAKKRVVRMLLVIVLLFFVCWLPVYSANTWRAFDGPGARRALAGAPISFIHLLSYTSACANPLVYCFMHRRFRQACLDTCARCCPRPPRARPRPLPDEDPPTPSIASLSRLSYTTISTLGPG
Assay: radioligand binding assay at the CCKB receptor in mouse cortical membranes
Details: [125I]-CCK8S 200pM, 150 min at 21 ± 3°C, read-out: CCKB pKi (converted)
endpointLabel: Ki

Consider the reported Ki for these compounds:
compound="CC(C)(NC(=O)C1C2c3ccccc3C(c3ccccc32)C1C(=O)N[C@@H](Cc1ccccc1)C(=O)Nc1cc(C(=O)O)cc(C(=O)O)c1)C12CC3CC(CC(C3)C1)C2 (stereo partly shown)" endpointlabel=Ki result="63.1 nM"
compound="O=C(O)c1cc(NC(=O)[C@@H](Cc2ccc(O)cc2)NC(=O)C2C3c4ccccc4C(c4ccccc43)C2C(=O)NCC23CC4CC(CC(C4)C2)C3)cc(C(=O)O)c1 (single isomer, unassigned)" endpointlabel=Ki result="15.8 nM"
compound="O=C(O)c1cccc(NC(=O)[C@H](Cc2ccccc2)NC(=O)C2C3c4ccccc4C(c4ccccc43)C2C(=O)NCC23CC4CC(CC(C4)C2)C3)c1 (single isomer, unassigned) [Example 40]" endpointlabel=Ki result="15.8 nM"

Lookup: Return reported Ki. Input compound: COc1ccc(C[C@H](NC(=O)C2C3c4ccccc4C(c4ccccc43)C2C(=O)NCC23CC4CC(CC(C4)C2)C3)C(=O)Nc2cc(C(=O)O)cc(C(=O)O)c2)cc1 (single isomer, unassigned) [Example 13]
Found: 501 nM

Lookup: Return reported Ki. Input compound: O=C(O)c1cc(NC(=O)[C@H](Cc2ccccc2)NC(=O)C2C3c4ccccc4C(c4ccccc43)C2C(=O)NCC2CCCCC2)cc(C(=O)O)c1 (single isomer, unassigned) [Example 31]
Found: 200 nM

----------
Target: CCKB receptor (Mus musculus)
Construct: The whole brains from male mice (CD1 22-25g; Charles River) were removed; from tissue; host or cells: cerebral cortex membranes of male CD1 mice
Sequence (P56481 1-453): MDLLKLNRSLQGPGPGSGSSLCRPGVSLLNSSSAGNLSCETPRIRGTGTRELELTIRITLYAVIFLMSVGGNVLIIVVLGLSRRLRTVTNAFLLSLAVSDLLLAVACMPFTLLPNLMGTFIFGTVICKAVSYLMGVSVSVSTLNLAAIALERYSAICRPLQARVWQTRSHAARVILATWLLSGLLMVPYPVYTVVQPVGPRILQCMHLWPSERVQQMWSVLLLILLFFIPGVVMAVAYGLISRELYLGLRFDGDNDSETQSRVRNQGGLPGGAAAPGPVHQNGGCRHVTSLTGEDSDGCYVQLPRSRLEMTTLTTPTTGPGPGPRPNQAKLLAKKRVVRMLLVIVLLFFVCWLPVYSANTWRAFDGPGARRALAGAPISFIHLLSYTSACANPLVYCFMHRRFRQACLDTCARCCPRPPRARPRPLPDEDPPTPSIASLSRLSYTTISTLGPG
Assay: radioligand binding assay at the CCKB receptor in mouse cortical membranes
Conditions: [125I]-CCK8S 200pM, 150 min at 21 ± 3°C, read-out: CCKB pKi (converted)
Ki strictly under 30 nM means 1; at 30 nM or over means 0.

compound="O=C(O)c1cc(NC(=O)[C@H](Cc2ccccc2)NC(=O)C2C3c4ccccc4C(c4ccccc43)C2C(=O)NCc2ccc(Cl)c(Cl)c2)cc(C(=O)O)c1 (single isomer, unassigned) [Example 34]" classification=0

Lookup: # TODO verify Ki < 30 nM strictly for this compound: COC(=O)c1cc(NC(=O)[C@H](Cc2ccccc2)NC(=O)C2C3c4ccccc4C(c4ccccc43)C2C(=O)NCC23CC4CC(CC(C4)C2)C3)cc(C(=O)O)c1 (some centres unmarked)
Found: 0

Lookup: # TODO verify Ki < 30 nM strictly for this compound: O=C(O)c1cc(NC(=O)[C@H](Cc2ccccc2)NC(=O)C2C3c4ccccc4C(c4ccccc43)C2C(=O)NCc2ccc3ccccc3c2)cc(C(=O)O)c1 (single isomer, unassigned) [Example 63]
Found: 1

Lookup: # TODO verify Ki < 30 nM strictly for this compound: O=C(O)c1cc(NC(=O)[C@H](Cc2ccccc2F)NC(=O)C2C3c4ccccc4C(c4ccccc43)C2C(=O)NCC23CC4CC(CC(C4)C2)C3)cc(C(=O)O)c1 (single isomer, unassigned) [Example 17]
Found: 1

Lookup: # TODO verify Ki < 30 nM strictly for this compound: O=C(O)c1cc(NC(=O)[C@H](Cc2ccccc2F)NC(=O)C2C3c4ccccc4C(c4ccccc43)C2C(=O)NCC23CC4CC(CC(C4)C2)C3)cc(C(=O)O)c1 (single isomer, unassigned) [Example 16]
Found: 1
